Target: Trp-p8 (Homo sapiens, UniProt Q7Z2W7, T58I)
Construct: expressed in transfected cells; host or cells: CHO (Chinese Hamster Ovary) cells
Sequence (Q7Z2W7 whole entry T58I): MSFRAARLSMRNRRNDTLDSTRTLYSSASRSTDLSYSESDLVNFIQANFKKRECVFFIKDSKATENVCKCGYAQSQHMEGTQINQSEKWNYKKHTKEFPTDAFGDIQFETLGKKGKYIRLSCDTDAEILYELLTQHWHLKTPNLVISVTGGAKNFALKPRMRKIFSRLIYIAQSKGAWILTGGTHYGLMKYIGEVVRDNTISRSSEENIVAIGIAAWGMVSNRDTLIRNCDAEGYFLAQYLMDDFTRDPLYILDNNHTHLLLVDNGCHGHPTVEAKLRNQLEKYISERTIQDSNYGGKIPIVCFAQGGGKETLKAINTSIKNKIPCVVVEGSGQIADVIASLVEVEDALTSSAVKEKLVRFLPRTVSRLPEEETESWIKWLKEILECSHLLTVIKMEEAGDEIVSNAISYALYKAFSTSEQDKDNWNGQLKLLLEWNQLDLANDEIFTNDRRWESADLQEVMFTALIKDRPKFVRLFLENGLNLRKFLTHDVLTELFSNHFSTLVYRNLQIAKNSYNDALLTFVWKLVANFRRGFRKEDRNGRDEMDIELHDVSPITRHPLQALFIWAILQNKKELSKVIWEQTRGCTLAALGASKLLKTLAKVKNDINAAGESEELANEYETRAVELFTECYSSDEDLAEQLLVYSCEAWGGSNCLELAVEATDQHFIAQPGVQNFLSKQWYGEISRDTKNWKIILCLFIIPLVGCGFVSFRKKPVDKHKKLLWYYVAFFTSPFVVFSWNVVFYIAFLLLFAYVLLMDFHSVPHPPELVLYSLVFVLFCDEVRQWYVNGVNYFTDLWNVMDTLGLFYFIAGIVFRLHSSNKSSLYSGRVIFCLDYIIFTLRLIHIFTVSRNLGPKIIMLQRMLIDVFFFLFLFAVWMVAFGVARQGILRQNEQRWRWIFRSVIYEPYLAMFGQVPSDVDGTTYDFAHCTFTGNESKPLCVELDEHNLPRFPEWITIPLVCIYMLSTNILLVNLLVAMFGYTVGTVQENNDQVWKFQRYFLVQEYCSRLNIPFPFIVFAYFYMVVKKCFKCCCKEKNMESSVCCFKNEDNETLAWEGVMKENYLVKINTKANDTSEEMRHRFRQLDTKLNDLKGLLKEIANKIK
Experiment: ATP viability assay with CHO/Trp-p8 cells at 37° C.
Assay type: cell-based
Conditions: Table 5, Formula I-E; CHO/Trp-p8 cells, 24-26 hours at 37° C., 50% reduction in relative cell viability; read-out: EC50
pEC50: −log10 of the molar value.

[
  {
    "Test Smiles": "CC(C)[C@@H]1CC[C@@H](C)C[C@H]1C(=O)n1c(=O)n(CCN)c2cc(C(=O)N[C@@H](CO)[C@@H](O)c3ccccc3)ccc21",
    "pEC50": "7.00 to 7.29"
  },
  {
    "Test Smiles": "CCN(CC)CCNC(=O)c1ccc2c(c1)n(CCN)c(=O)n2C(=O)[C@@H]1C[C@H](C)CC[C@H]1C(C)C",
    "pEC50": "> 7.70"
  },
  {
    "Test Smiles": "CC(C)[C@@H]1CC[C@@H](C)C[C@H]1C(=O)n1c(=O)n(CCN)c2cc(C(=O)Nc3ccccc3)ccc21",
    "pEC50": "7.30 to 7.68"
  },
  {
    "Test Smiles": "CC(C)[C@@H]1CC[C@@H](C)C[C@H]1C(=O)n1c(=O)n(CCN)c2cc(C(=O)NCc3ccccc3)ccc21",
    "pEC50": "7.30 to 7.68"
  },
  {
    "Test Smiles": "CC(C)[C@@H]1CC[C@@H](C)C[C@H]1C(=O)n1c(=O)n(CCN)c2cc(S(C)(=O)=O)ccc21",
    "pEC50": "> 7.70"
  },
  {
    "Test Smiles": "COCCNC(=O)c1ccc2c(c1)n(CCN)c(=O)n2C(=O)[C@@H]1C[C@H](C)CC[C@H]1C(C)C",
    "pEC50": "> 7.70"
  },
  {
    "Test Smiles": "CSc1ccc2c(c1)n(CCN)c(=O)n2C(=O)[C@@H]1C[C@H](C)CC[C@H]1C(C)C",
    "pEC50": "> 7.70"
  }
]
